- test_method_notes: pKa measured by titration (Example 3)
- Type: physicochemical
- condition_summary: measurable detection limit of 2
property: pKa

1) CCNn1c(C)c(C(=O)N[C@H](c2ccccc2)C2CC2)c2cccc(F)c2c1=O [SJB-01] ... < 2

---

- test_method_notes: Solubility in water and simulated fluids (FaSSIF, FaSSGF) at 37 °C
- Format: physicochemical
- condition_summary: FaSSGF, 37 °C, fassgf or other biorelevant, thermodynamic from solid, fasted state simulated gastric fluid, about 37 °C; read-out: Solubility in FaSSGF
property: solubility at 24 h (µg/mL)

1) CCNn1c(C)c(C(=O)N[C@H](c2ccccc2)C2CC2)c2cccc(F)c2c1=O [Pattern α] ... 7
